// data source = paper PMC7534330

Test: Pharmacokinetics and absolute bioavailability of five compounds after oral and i.v. administration (UHPLC-MS/MS)
Format: in vivo
Details: SD, rat, in vivo, iv
Quick list: CΔmax (dose-normalized) per entry.
Provide only the numeric value, understood in ng/mL.

Worked examples, 3 molecules total:
Report CΔmax (dose-normalized) for COc1cc(/C=C/C(=O)O[C@H]2[C@H](O)[C@@H](CO)O[C@@]2(CO)O[C@H]2O[C@H](CO)[C@@H](O)[C@H](O)[C@H]2O)ccc1O [A5, Sibiricose A5] please. 1784.32

Report CΔmax (dose-normalized) for COc1cc(C=CC(=O)OCC2OC(OC3(CO)OC(CO)C(O)C3OC(=O)C=Cc3cc(OC)c(O)c(OC)c3)C(O)C(O)C2O)cc(OC)c1O (stereo not shown) [DSS, 3,6′-disinapoyl sucrose] please. 682.88

Report CΔmax (dose-normalized) for COc1cc(/C=C/C(=O)O[C@H]2[C@H](O)[C@@H](CO)O[C@@]2(CO)O[C@H]2O[C@H](COC(=O)c3ccc(O)cc3)[C@@H](O)[C@H](O)[C@H]2O)cc(OC)c1OC [TFSA, tenuifoliside A] please. 375.56

Continuing:
Report CΔmax (dose-normalized) for COc1cc(C=CC(=O)OC2C(O)C(CO)OC2(CO)OC2OC(CO)C(O)C(O)C2O)cc(OC)c1O (stereo not shown) [A6, Sibiricose A6] please. 1204.66

###

Assay: Pharmacokinetics and absolute bioavailability of five compounds after oral and i.v. administration (UHPLC-MS/MS)
Type: in vivo
Settings: SD, in vivo; rat, oral administration of pure compound; A5 7.40, A6 11.60, DSS 16.00, TFSA 50.00, TMCA 3.11 mg/kg; n = 6; read-out: MRT0-t
Protocol: A Thermo Hypersil Gold C18 column (3.0 × 100 mm, i.d.; 3 μm) was used for chromatographic separation. An aqueous 10 mM ammonium acetate solution (A) and acetonitrile (B) were selected as the mobile phase components. […] The elementary pharmacokinetic parameters of plasma samples were analyzed by DAS 2.0 pharmacokinetic software. […]
Metric name: MRT last (min)
Provide only the numeric value, understood in min.

Report MRT last for COc1cc(C=CC(=O)O)cc(OC)c1OC [TMCA, 3,4,5-trimethoxycinnamic acid] please. 40.8

###

Quick list: AUCΔ0-t (dose-normalized) per entry.
Experiment: Pharmacokinetics and absolute bioavailability of five compounds after oral and i.v. administration (UHPLC-MS/MS)
Assay type: in vivo
Details: SD, rat, in vivo, po
Provide only the numeric value, understood in ng·h/mL.

Report AUCΔ0-t (dose-normalized) for COc1cc(C=CC(=O)OCC2OC(OC3(CO)OC(CO)C(O)C3OC(=O)C=Cc3cc(OC)c(O)c(OC)c3)C(O)C(O)C2O)cc(OC)c1O (stereo not shown) [DSS, 3,6′-disinapoyl sucrose] please. 2.51

Report AUCΔ0-t (dose-normalized) for COc1cc(C=CC(=O)OC2C(O)C(CO)OC2(CO)OC2OC(CO)C(O)C(O)C2O)cc(OC)c1O (stereo not shown) [A6, Sibiricose A6] please. 8.82

Report AUCΔ0-t (dose-normalized) for COc1cc(/C=C/C(=O)O[C@H]2[C@H](O)[C@@H](CO)O[C@@]2(CO)O[C@H]2O[C@H](COC(=O)c3ccc(O)cc3)[C@@H](O)[C@H](O)[C@H]2O)cc(OC)c1OC [TFSA, tenuifoliside A] please. 1.92

Continuing:
Report AUCΔ0-t (dose-normalized) for COc1cc(/C=C/C(=O)O[C@H]2[C@H](O)[C@@H](CO)O[C@@]2(CO)O[C@H]2O[C@H](CO)[C@@H](O)[C@H](O)[C@H]2O)ccc1O [A5, Sibiricose A5] please. 11.99
